# subject of test: Sodium-dependent serotonin transporter (Homo sapiens, UniProt P31645)
# Sequence (P31645 whole entry): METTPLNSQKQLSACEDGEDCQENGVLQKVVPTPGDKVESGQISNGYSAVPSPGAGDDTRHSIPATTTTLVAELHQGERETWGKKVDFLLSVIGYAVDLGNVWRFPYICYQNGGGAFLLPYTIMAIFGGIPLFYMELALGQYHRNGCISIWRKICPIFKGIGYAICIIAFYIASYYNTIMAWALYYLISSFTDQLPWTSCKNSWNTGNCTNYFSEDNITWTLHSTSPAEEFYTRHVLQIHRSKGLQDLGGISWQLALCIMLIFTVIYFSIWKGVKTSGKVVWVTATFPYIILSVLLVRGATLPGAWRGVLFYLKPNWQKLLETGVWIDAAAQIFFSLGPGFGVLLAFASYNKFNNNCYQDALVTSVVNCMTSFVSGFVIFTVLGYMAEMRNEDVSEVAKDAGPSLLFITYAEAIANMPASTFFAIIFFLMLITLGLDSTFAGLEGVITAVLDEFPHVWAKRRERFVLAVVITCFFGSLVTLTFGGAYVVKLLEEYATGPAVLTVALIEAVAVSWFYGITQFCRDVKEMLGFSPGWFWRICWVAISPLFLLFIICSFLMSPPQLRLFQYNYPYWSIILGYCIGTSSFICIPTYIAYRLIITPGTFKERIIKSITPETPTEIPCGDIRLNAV
Checkbox rule: Ki lower than 10 nM = true (1); Ki not lower than 10 nM = false (0).

compound | subject of test | group label
CCN(C)[C@@H]1C[C@@H](c2ccc(Cl)c(Cl)c2)c2ccccc21 (relative stereo) | Sodium-dependent serotonin transporter (Homo sapiens, UniProt P31645) | false (0)
CN([C@H]1C[C@@H](c2ccc(Cl)c(Cl)c2)c2ccccc21)C(C)(C)C (relative stereo) | Sodium-dependent serotonin transporter (Homo sapiens, UniProt P31645) | false (0)

Quick check: Ki of CN(C)[C@@H]1C[C@@H](c2ccc(Cl)c(Cl)c2)c2ccccc21.O=C(O)/C=C\C(=O)O (relative stereo) under 10 nM?
true (1)
